# experiment: AUC ( 0 to 24 hrs) in rat at 0.5 mg/kg, iv
# Type: ADME, organism-based
# Parameters: time < 24 hr, dose 0.5 mg/kg, route intravenous
# test parameters: plasma

{"smiles str": "Cc1nn(-c2cccc(NC(=O)[C@H]3C[C@@H]3c3ccccc3)c2)c(C)c1CC(=O)O", "AUC(0-t) at 24 h [ng·h/mL]": 3360}

---

# experiment: Oral bioavailability in rat at 10 mg/kg
# Assay type: ADME, organism-based
# test parameters: in vivo

{"smiles str": "Cc1c(CC(=O)O)c(-c2ccccc2)nn1Cc1ccccc1S(=O)(=O)c1ccccc1", "bioavailability, %": 73}

---

# experiment: Clearance in rat at 1 mg/kg, iv
# Format: ADME, organism-based
# Parameters: dose 1 mg/kg, route intravenous
# test parameters: in vivo

{"smiles str": "Cc1c(CC(=O)O)c(-c2ccccc2)nn1Cc1ccccc1S(=O)(=O)c1ccccc1", "clearance": "8.5 mL/min/kg"}

---

# experiment: Plasma protein binding in rat by rapid equilibrium dialysis method
# Assay type: ADME, cell-free
# test parameters: read-out: PPB (converted)

{"smiles str": "Cc1c(CC(=O)O)c(-c2ccccc2)nn1Cc1ccccc1S(=O)(=O)c1ccccc1", "fraction unbound": 0.012}

---

# experiment: Lipophilicity , log D of the compound at pH 7.4 by shake-flask method
# Type: physicochemical
# test parameters: buffer

{"smiles str": "Cc1nn(-c2cccc(NC(=O)[C@H]3C[C@@H]3c3ccccc3)c2)c(C)c1CC(=O)O", "logD": 0.9}
{"smiles str": "Cc1c(CC(=O)O)c(-c2ccccc2)nn1Cc1ccccc1S(=O)(=O)c1ccccc1", "logD": 0.7}

---

# experiment: Solubility of the compound at pH 1
# Assay type: physicochemical
# test parameters: buffer
observable: solubility

{"smiles str": "Cc1c(CC(=O)O)c(-c2ccccc2)nn1Cc1ccccc1S(=O)(=O)c1ccccc1", "result": "3 µg/mL"}
{"smiles str": "Cc1nn(-c2cccc(NC(=O)[C@H]3C[C@@H]3c3ccccc3)c2)c(C)c1CC(=O)O", "result": "500 µg/mL"}

---

# experiment: AUC ( 0 to 24 hrs) in rat at 1 mg/kg, iv
# Type: ADME, organism-based
# Design: time < 24 hr, dose 1 mg/kg, route intravenous
# test parameters: plasma

{"smiles str": "Cc1c(CC(=O)O)c(-c2ccccc2)nn1Cc1ccccc1S(=O)(=O)c1ccccc1", "AUC(0-t) at 24 h / ng·h/mL": 1960}

---

# experiment: Solubility of the compound at pH 7.4
# Assay type: physicochemical
# test parameters: buffer
Here, each record is paired with measured solubility data.

{"smiles str": "Cc1nn(-c2cccc(NC(=O)[C@H]3C[C@@H]3c3ccccc3)c2)c(C)c1CC(=O)O", "solubility": "800 µg/mL"}
{"smiles str": "Cc1c(CC(=O)O)c(-c2ccccc2)nn1Cc1ccccc1S(=O)(=O)c1ccccc1", "solubility": "950 µg/mL"}

---

Catalogue of pKa values
# experiment: Dissociation constant, pKa of the compound by potentiometric method
# Format: physicochemical

{"smiles str": "Cc1nn(-c2cccc(NC(=O)[C@H]3C[C@@H]3c3ccccc3)c2)c(C)c1CC(=O)O", "pKa": 4.2}
{"smiles str": "Cc1c(CC(=O)O)c(-c2ccccc2)nn1Cc1ccccc1S(=O)(=O)c1ccccc1", "pKa": 4.2}
